Molecular target: T1, Bcl-w, Q92843
T1 chain: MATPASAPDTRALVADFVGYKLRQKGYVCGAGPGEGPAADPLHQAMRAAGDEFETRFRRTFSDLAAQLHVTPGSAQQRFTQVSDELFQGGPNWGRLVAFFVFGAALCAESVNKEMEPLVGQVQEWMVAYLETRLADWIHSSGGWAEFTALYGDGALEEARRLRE
Test: peptide SPOT array, c-Myc-tagged receptor at 1 uM or 100 nM, anti-c-Myc-Cy3
quantity name: SPOT signal as a fraction of Bim BH3's signal on the same receptor and array
Number only, please.

Solved cases (8 shown):
{"binder": "VKVLGKAVHSLSRIGDELYLEPLEDG [RAD9A]", "value reported": 0.02}
{"binder": "CSTNNPSQAKLRRELDESLQVAERLT [CLU]", "value reported": 0.02}
{"binder": "TSQTEGLSRLLRQHAEDLNSGPLSKL [FES]", "value reported": 0.09}
{"binder": "HVDGLHSSEELRNLGWDFSQEKPSTT [SETD2]", "value reported": 0.02}
{"binder": "ALNAQPSAEELSKIADSVNLPLDVVK [ZEB1]", "value reported": 0.01}
{"binder": "KEFLALASSSLLKIGQETDKTTTRNR [NCKAP1]", "value reported": 0.26}
{"binder": "LQLHRVLPPDLKSLGDQYVKDEFRRH [ACN9]", "value reported": 0.14}
{"binder": "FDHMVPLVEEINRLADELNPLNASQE [C7orf26]", "value reported": 0.02}

[ask] Quick one: give measured SPOT signal as a fraction of Bim BH3's signal on the same receptor and array for DNHKKKTVKMLEYLGKDVLHGVFNYL [CASP5]
[reply] 0.21

[ask] Quick one: give measured SPOT signal as a fraction of Bim BH3's signal on the same receptor and array for MEGSDALALRLACIGDEMDVSLRAPR [BIK]
[reply] 0.74

[ask] Quick one: give measured SPOT signal as a fraction of Bim BH3's signal on the same receptor and array for FYRRRDISNTLIMLADKHAKEIEEES [MTA3]
[reply] 0.09

[ask] Quick one: give measured SPOT signal as a fraction of Bim BH3's signal on the same receptor and array for DAIIQMIVELLKRVGDQWEEEQSLAS [C6orf222]
[reply] 0.33

[ask] Quick one: give measured SPOT signal as a fraction of Bim BH3's signal on the same receptor and array for FSVDLNASRSLSQVAMDLHEAVSMKL [DCST2]
[reply] 0.03

[ask] Quick one: give measured SPOT signal as a fraction of Bim BH3's signal on the same receptor and array for HRTSNVLTLSLKRFANFSGGKITKDV [USP36]
[reply] 0.65
